Biological target: UniProt:Q91XT9
Sequence (Q91XT9 whole entry): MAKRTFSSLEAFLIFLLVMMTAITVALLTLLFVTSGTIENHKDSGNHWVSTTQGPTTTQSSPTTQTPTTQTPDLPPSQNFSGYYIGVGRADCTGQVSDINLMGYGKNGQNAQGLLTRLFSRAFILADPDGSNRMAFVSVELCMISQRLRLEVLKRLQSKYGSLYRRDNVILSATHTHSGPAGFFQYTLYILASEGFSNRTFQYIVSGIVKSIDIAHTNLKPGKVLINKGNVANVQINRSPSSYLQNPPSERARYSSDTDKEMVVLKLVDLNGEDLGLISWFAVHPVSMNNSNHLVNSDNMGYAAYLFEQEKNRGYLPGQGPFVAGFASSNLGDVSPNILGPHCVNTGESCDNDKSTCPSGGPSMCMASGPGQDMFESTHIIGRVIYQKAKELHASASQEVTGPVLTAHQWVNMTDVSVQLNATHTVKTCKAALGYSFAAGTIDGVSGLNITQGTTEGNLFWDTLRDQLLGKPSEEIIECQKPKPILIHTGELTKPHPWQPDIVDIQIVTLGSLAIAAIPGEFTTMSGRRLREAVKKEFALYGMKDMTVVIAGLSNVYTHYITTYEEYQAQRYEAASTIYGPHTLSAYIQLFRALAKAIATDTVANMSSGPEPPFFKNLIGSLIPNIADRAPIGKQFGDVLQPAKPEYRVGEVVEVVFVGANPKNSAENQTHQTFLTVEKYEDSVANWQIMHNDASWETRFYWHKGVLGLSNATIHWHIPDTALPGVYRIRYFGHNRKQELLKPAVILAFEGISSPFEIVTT
Assay: mitochondrial ceramidase (mt-CDase) activity, radioactive assay or HPLC assay
Assay type: biochemical
Settings: substrate D-erythro-ceramide 0.625 mole %
readout.kind: IC50 (50% inhibition of mt-CDase activity) (mole %)

Would you please look over these solved cases?
# compound, value.reported
data = [
    ("CCCCCCCCCCCCC/C=C/[C@H](O)[C@H](CO)NC(=O)CCCCCCCCCCCCCCCCC [L-t-C18-Cer, L-threo-C18-ceramide]", 0.11),
    ("CCCCCCCCCCCCC/C=C/[C@@H](O)[C@H](CO)NC [N-Me-Sph, N-methyl-D-erythro-sphingosine]", 0.13),
    ("CCCCCCCCCCCCCCCC(=O)C(N)CO (centres unmarked) [3-keto-dh-Sph, 3-keto-dihydrosphingosine]", 0.34),
    ("CCCCCCCCCCCCC/C=C/[C@@H](O)[C@@H](N)CO [D-e-Sph, D-erythro-sphingosine, reference compound]", 0.04),
]

(1) CCCCCCCCCCCCC/C=C/[C@H](O)[C@@H](CO)NC(=O)CCCCCCCCCCCCCCCCC [L-e-C18-Cer, L-erythro-C18-ceramide]
(2) CCCCCCCCCCCCC/C=C/C(=O)[C@H](CO)NC(=O)CCCCCCCCCCCCCCC [3-keto-C16-Cer, 3-keto-C16-ceramide]
// max by IC50 (50% inhibition of mt-CDase activity) over [ 1 , 2 ] Indicate your choice by writing its label.
2
